Target: SARS-CoV-2 PL-Pro (Severe acute respiratory syndrome coronavirus 2)
Assay: biochemical
pIC50: −log10 of the molar value.
The entries below are paired with their reported pIC50.
outcome measure: pIC50

- O=C1C(Cl)=C(NCCN2CCOCC2)C(=O)c2ncccc21: 6.66
- CC[N+](C)(CC)CCC[n+]1c(-c2ccccc2)c2cc(N)ccc2c2ccc(N)cc21: 6.62

====

Target: SARS-CoV-2 PL-Pro (Severe acute respiratory syndrome coronavirus 2)
Assay: biochemical
Details: dose response, 0.014 µM to 20 µM, 8 concentration points; read-out: IC50
The entries below are paired with their reported IC50.
outcome measure: IC50

- CCOC(=O)C1=C(C)N=c2s/c(=C\c3ccc(OCC(=O)O)cc3)c(=O)n2C1c1ccc(SC)cc1 (centres unmarked) [Compound 15]: 3140 nM
- Cc1cc2nc3c(=O)[nH]c(=O)nc-3n(C)c2cc1C=O [Compound 3]: 401 nM
- O=C1C(=O)c2cc([N+](=O)[O-])ccc2-c2ccccc21 [Compound 4, 2-Nitrophenanthrene-9,10-dione]: 129 nM
- Cc1nc2c(=O)n(C)c(=O)nc-2n(C)n1 [Compound 2]: 74 nM
- CC1(C)C(=O)N=C2C1=C(O)C(=O)c1ccccc12 [Compound 9]: 390 nM
- Cc1ccc(NC2=CC(=O)c3sc(C)nc3C2=O)cc1 [Compound 13]: 260 nM
- CC1(C)CCC2=C(O1)c1ccccc1C(=O)C2=O [Compound 10]: 4430 nM
- CC(=NNC(=N)N)c1cc(NC(=O)CCCCCCCCC(=O)Nc2cc(C(C)=NNC(=N)N)cc(C(C)=NNC(=N)N)c2)cc(C(C)=NNC(=N)N)c1 [Compound 16]: 1210 nM
- CC(C)(C)C(=O)Nc1ccc2c(c1)C(=O)C(=O)c1ccccc1-2 [Compound 5]: 246 nM
- O=C1C(=O)c2ccccc2-c2ccccc21 [Compound 6, phenanthrene-9,10-dione]: 504 nM
- Cc1cccc2c1ccc1c3c(c(=O)oc(=O)c12)[C@@H](C)CO3 [Compound 11]: 920 nM

====

Molecular target: SARS-CoV-2 PL-Pro (Severe acute respiratory syndrome coronavirus 2, UniProt P0DTD1)
Assay: biochemical
Conditions: read-out: PLPro Inhibition [%] Primary Screen (20 µM)
outcome measure: inhibition at 20 µM

• Cc1ccc(NC2=CC(=O)c3sc(C)nc3C2=O)cc1 = 160%
• Cc1cccc2c1ccc1c3c(c(=O)oc(=O)c12)[C@@H](C)CO3 = 80.7%
• O=C1C(=O)c2ccccc2-c2ccccc21 = 181%
• CC1(C)CCC2=C(O1)c1ccccc1C(=O)C2=O = 146%
• CC1(C)C(=O)N=C2C1=C(O)C(=O)c1ccccc12 = 155%
• O=C1C(Cl)=C(NCCN2CCOCC2)C(=O)c2ncccc21 = 151%

====

Molecular target: SARS-CoV-2 PL-Pro (Severe acute respiratory syndrome coronavirus 2, UniProt P0DTD1)
Assay: biochemical
Settings: read-out: PLPro Inhibition [%] Primary Screen (20 µM)
Structures can show the parent of a compound that is named as a salt.
The entries below are paired with their reported inhibition at 20 µM.
outcome measure: inhibition at 20 µM (%)

• CC(=NNC(=N)N)c1cc(NC(=O)CCCCCCCCC(=O)Nc2cc(C(C)=NNC(=N)N)cc(C(C)=NNC(=N)N)c2)cc(C(C)=NNC(=N)N)c1 = 140
• CC[N+](C)(CC)CCC[n+]1c(-c2ccccc2)c2cc(N)ccc2c2ccc(N)cc21 = 136
• CCOC(=O)C1=C(C)N=c2s/c(=C\c3ccc(OCC(=O)O)cc3)c(=O)n2C1c1ccc(SC)cc1 (centres unmarked) = 82.8
• Cc1nc2c(=O)n(C)c(=O)nc-2n(C)n1 = 181
• Cc1c(S(=O)(=O)O)oc2c1C(=O)C(=O)c1c-2ccc2c1CCCC2(C)C [Compound 8, sodium salt] = 124
• Cc1cc2nc3c(=O)[nH]c(=O)nc-3n(C)c2cc1C=O = 119
• CC(C)(C)C(=O)Nc1ccc2c(c1)C(=O)C(=O)c1ccccc1-2 = 184
• O=C1C(=O)c2cc([N+](=O)[O-])ccc2-c2ccccc21 = 186
